# System: PAD
# assay-method-text: qHTS profiling for inhibitors of Plasmodium falciparum proliferation (AID 504749); note: nearly all actives have a fitted effect of over 60% in size
# condition-context: P. falciparum in erythrocytes, SYBR Green DNA, 72 h; series mostly up to 28.7 µM
Inconclusive results are not listed. Activity calls are given as the source filed them. Calls come from the whole dose curve; as a rule, active = well fitted inhibition curve with a large enough effect; inconclusive = small, poorly fitted or top-dose-only effect; inactive = flat fitted curve, though single readings scatter.
Labels: TRUE = active, FALSE = inactive

- molecule: "Cc1[nH]c(=O)c(C#N)cc1-c1ccncc1"
  assigned-category: "FALSE"
- molecule: "NCCc1ccc(O)c(O)c1"
  assigned-category: "FALSE"
- molecule: "CN1CCN(CCCN2c3ccccc3Sc3ccc(C(F)(F)F)cc32)CC1"
  assigned-category: "TRUE"
- molecule: "OC(CN1CCC(Cc2ccc(F)cc2)CC1)c1ccc(Cl)cc1 (stereo not drawn)"
  assigned-category: "TRUE"
- molecule: "NC(=O)c1cnccn1"
  assigned-category: "FALSE"
- molecule: "N#Cc1ccc(C(c2ccc(C#N)cc2)n2cncn2)cc1"
  assigned-category: "FALSE"
- molecule: "CCCc1nc2c(C)cc(-c3nc4ccccc4n3C)cc2n1Cc1ccc(-c2ccccc2C(=O)O)cc1"
  assigned-category: "TRUE"
- molecule: "Cc1[nH]c(=O)c(C#N)cc1-c1ccc2nccn2c1"
  assigned-category: "FALSE"
- molecule: "CC(c1cc2ccccc2s1)N(O)C(N)=O (stereo not drawn)"
  assigned-category: "FALSE"
- molecule: "CC(C)NCC(O)COc1ccc(COCCOC(C)C)cc1 (stereo not drawn)"
  assigned-category: "FALSE"
- molecule: "CCCCNc1cc(C(=O)O)cc(S(N)(=O)=O)c1Oc1ccccc1"
  assigned-category: "FALSE"
- molecule: "NC[C@H](O)c1ccc(O)c(O)c1"
  assigned-category: "FALSE"
- molecule: "CC(C[N+](C)(C)C)OC(N)=O (stereo not drawn)"
  assigned-category: "FALSE"
